Assay Target: human TLR9 (Homo sapiens (Human), UniProt Q9NR96)
Sequence (Q9NR96 26-1032): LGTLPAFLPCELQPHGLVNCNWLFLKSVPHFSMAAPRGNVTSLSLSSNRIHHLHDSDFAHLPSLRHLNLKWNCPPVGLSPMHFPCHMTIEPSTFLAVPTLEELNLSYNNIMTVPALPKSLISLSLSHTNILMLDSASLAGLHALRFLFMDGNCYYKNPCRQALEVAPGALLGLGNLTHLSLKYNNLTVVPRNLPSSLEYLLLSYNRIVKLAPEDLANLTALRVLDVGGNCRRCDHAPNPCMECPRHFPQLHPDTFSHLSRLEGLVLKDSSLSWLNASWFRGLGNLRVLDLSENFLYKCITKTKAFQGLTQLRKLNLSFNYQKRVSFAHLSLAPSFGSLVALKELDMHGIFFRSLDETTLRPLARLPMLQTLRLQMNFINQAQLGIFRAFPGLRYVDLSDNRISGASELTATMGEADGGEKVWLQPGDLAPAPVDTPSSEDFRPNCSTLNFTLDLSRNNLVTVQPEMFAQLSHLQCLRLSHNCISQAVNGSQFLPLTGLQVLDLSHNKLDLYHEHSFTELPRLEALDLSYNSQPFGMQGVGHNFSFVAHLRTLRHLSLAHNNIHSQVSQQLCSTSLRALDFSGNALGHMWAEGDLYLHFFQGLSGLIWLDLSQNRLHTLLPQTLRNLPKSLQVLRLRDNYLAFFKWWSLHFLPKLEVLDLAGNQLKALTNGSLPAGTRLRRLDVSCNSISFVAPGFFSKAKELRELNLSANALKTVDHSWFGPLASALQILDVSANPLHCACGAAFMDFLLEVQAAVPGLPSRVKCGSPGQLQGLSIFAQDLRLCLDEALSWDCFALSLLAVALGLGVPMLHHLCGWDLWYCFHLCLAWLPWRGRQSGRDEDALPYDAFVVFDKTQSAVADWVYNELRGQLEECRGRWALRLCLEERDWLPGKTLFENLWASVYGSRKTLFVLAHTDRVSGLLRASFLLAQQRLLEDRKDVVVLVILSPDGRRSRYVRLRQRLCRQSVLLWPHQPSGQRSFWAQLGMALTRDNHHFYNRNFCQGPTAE
Experiment Summary: TLR9 inhibition reporter assay (HEK-Blue, SEAP)
Assay Context: HEK-Blue cells overexpressing human TLR9, ODN2006 5 nM stimulation
Hi there, I'd appreciate the recorded pIC50 for every entry that follows.
Give only the number. pIC50 is defined as minus log10 of concentration in molar units.

Dear colleague, I am looking for the recorded pIC50 of the following compound: Cc1cn2cc(-c3[nH]c4ccc(-c5ccc(N6CCN(C)CC6)nc5)cc4c3C(C)C)ccc2n1
6.94

Dear colleague, I am looking for the recorded pIC50 of the following compound: CNCCN1CCn2nc(-c3ccc4[nH]c(-c5ccnc(C)c5)c(C(C)C)c4c3)c(C(N)=O)c2C1
5.71

---

Hi there, I'd appreciate the recorded IC50 for every entry that follows.
Assay Target: human TLR8 (Homo sapiens (Human), UniProt Q9NR97)
Sequence (Q9NR97 27-1041): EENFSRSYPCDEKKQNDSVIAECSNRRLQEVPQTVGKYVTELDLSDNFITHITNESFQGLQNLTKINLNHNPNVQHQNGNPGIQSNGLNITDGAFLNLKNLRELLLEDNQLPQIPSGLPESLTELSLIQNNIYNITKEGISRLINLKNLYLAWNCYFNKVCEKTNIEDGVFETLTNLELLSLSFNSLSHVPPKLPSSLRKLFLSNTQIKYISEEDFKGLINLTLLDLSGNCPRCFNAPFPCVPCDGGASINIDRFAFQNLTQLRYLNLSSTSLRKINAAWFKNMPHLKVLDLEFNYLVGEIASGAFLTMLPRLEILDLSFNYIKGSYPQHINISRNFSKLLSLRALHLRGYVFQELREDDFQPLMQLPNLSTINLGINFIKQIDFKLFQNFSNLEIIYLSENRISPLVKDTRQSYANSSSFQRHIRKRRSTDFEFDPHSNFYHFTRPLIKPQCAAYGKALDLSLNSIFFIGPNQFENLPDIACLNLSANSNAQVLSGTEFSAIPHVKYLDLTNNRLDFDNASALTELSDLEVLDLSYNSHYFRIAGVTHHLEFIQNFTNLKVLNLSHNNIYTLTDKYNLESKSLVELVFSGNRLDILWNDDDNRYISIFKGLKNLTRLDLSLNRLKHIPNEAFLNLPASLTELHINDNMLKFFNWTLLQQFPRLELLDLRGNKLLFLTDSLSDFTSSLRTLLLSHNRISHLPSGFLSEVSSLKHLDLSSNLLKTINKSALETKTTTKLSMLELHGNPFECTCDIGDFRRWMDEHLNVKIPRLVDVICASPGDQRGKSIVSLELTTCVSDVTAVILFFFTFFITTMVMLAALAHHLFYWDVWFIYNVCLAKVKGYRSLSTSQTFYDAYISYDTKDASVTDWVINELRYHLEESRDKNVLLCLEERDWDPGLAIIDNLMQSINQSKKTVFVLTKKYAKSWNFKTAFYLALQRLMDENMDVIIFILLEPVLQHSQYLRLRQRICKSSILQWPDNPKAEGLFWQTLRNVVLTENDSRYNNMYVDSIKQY
Experiment Summary: TLR8 inhibition reporter assay (HEK-Blue, SEAP)
Assay Context: HEK-Blue cells overexpressing human TLR8, R848 15.9 μM stimulation
Write it as a number; the unit µM goes unstated.

Dear colleague, I am looking for the recorded IC50 of the following compound: COc1ccc(-c2[nH]c3ccc(-c4ccc(CN5CCOCC5)cc4)cc3c2C(C)C)cc1OC
0.038

Dear colleague, I am looking for the recorded IC50 of the following compound: Cc1cc(-c2[nH]c3ccc(-c4nnc(C(=O)NC5CCN(C(C)C)CC5)o4)cc3c2C(C)C)ccn1
0.0038

Dear colleague, I am looking for the recorded IC50 of the following compound: COc1ccc(-c2[nH]c3ccc(-c4nnc(C5CCN(CC(=O)N(C)C)CC5)o4)cc3c2CC(F)(F)F)cc1OC
0.04

Dear colleague, I am looking for the recorded IC50 of the following compound: Cc1cc(-c2[nH]c3ccc(-c4nnc(C5CCN(C)CC5)o4)cc3c2C(C)C)cn2ncnc12
0.0006

Dear colleague, I am looking for the recorded IC50 of the following compound: Cc1cc(-c2[nH]c3ccc(-c4ccc(CO)nc4)cc3c2C(C)C)cc(C)n1
0.027

Dear colleague, I am looking for the recorded IC50 of the following compound: Cc1cc(-c2[nH]c3ccc(-c4nc(C(=O)NCC5CCNC5)co4)cc3c2C(C)C)ccn1 (stereo not drawn)
0.061

Dear colleague, I am looking for the recorded IC50 of the following compound: COc1ccc(-c2[nH]c3ccc(-c4nnc(C[C@@H]5CCCCN5)o4)cc3c2C(C)C)cc1OC
0.0059

Dear colleague, I am looking for the recorded IC50 of the following compound: CCc1c(-c2ccc(OC)c(OC)c2)[nH]c2ccc(-c3nnc(C(N)=O)o3)cc12
0.173

Dear colleague, I am looking for the recorded IC50 of the following compound: CCc1c(-c2ccc(OC)c(OC)c2)[nH]c2ccc(-c3noc(C4CCNC4)n3)cc12 (stereo not drawn)
0.019

Dear colleague, I am looking for the recorded IC50 of the following compound: Cc1cc(-c2[nH]c3ccc(-c4nnc(C5CCCN(C(C)C)C5)[nH]4)cc3c2C(C)C)cc(C)n1 (stereo not drawn) [Example 357]
0.0014

Dear colleague, I am looking for the recorded IC50 of the following compound: Cc1cc(-c2[nH]c3ccc(-c4nnc(C5CCCN(C(C)C)C5)[nH]4)cc3c2C(C)C)ccn1 (stereo not drawn) [Example 188]
0.003

Dear colleague, I am looking for the recorded IC50 of the following compound: CC(C)c1c(-c2ccc3nccn3c2)[nH]c2ccc(-c3nnc([C@@H]4CCCNC4)o3)cc12
0.422

Dear colleague, I am looking for the recorded IC50 of the following compound: COc1cc(-c2ccc3[nH]c(-c4ccnc5[nH]ncc45)c(C(C)C)c3c2)cnc1OC
0.054

Dear colleague, I am looking for the recorded IC50 of the following compound: COc1ccc(-c2[nH]c3ccc(-c4ccc(NCCCN(C)C)cc4)cc3c2C(C)C)cc1OC
0.035

Dear colleague, I am looking for the recorded IC50 of the following compound: Cc1cc(-c2[nH]c3ccc(-c4nnc(C5CCN(C(=O)CN(C)C)CC5)[nH]4)cc3c2C(C)C)ccn1
0.016

Dear colleague, I am looking for the recorded IC50 of the following compound: COc1ccc(-c2[nH]c3ccc(-c4ccc(-c5cccc(CN6CCN(C)CC6)c5)cc4)cc3c2C(C)C)cc1OC
20.1

Dear colleague, I am looking for the recorded IC50 of the following compound: CC(C)c1c(-c2ccnc3[nH]ncc23)[nH]c2ccc(-c3nnc(CNC45CC6CC(CC(C6)C4)C5)o3)cc12
0.018

Dear colleague, I am looking for the recorded IC50 of the following compound: COc1ccc(-c2[nH]c3ccc(-c4cccc(C(=O)NC5CCN(C(C)C)CC5)c4)cc3c2C(C)C)cc1OC
0.029

Dear colleague, I am looking for the recorded IC50 of the following compound: Cc1cc(-c2[nH]c3ccc(-c4nc(C(=O)NCCCN5CCN(C)CC5)co4)cc3c2C(C)C)cc(C)n1
0.0019

Dear colleague, I am looking for the recorded IC50 of the following compound: CCOC(=O)N1CCC(NC(=O)c2coc(-c3ccc4[nH]c(-c5cc(C)nc(C)c5)c(C(C)C)c4c3)n2)CC1
0.0093

Dear colleague, I am looking for the recorded IC50 of the following compound: COc1ccc(-c2[nH]c3ccc(-c4ccc(N5CCC(c6ccncc6)CC5)cc4)cc3c2C(C)C)cc1OC
0.464

Dear colleague, I am looking for the recorded IC50 of the following compound: CC(C)c1c(-c2ccnc3[nH]ncc23)[nH]c2ccc(-c3cccc(CO)c3)cc12
0.063

Dear colleague, I am looking for the recorded IC50 of the following compound: CC(C)c1c(-c2ccnc3[nH]ncc23)[nH]c2ccc(-c3nnc([C@@H]4CCCNC4)o3)cc12
0.0054

Dear colleague, I am looking for the recorded IC50 of the following compound: CNC(=O)CN1CCC(c2nnc(-c3ccc4[nH]c(-c5ccnc6[nH]ncc56)c(C(C)C)c4c3)o2)CC1
0.01

Dear colleague, I am looking for the recorded IC50 of the following compound: CNC(=O)c1ccc(-c2ccc3[nH]c(-c4cc(C)nc(C)c4)c(C(C)C)c3c2)cn1
0.065

Dear colleague, I am looking for the recorded IC50 of the following compound: Cc1cc(-c2[nH]c3ccc(-c4nnc([C@@H]5CCCN(C(C)C)C5)o4)cc3c2C(C)C)cc(C)n1
0.0015

Dear colleague, I am looking for the recorded IC50 of the following compound: COc1ccc(-c2[nH]c3ccc(-c4nnc(CN5CCCN(C(C)=O)CC5)o4)cc3c2C(C)C)cc1OC
0.099

Dear colleague, I am looking for the recorded IC50 of the following compound: Cc1cc(-c2[nH]c3ccc(-c4cc5c(s4)CN(C)CC5)cc3c2C(C)C)cc(C)n1
0.0015

Dear colleague, I am looking for the recorded IC50 of the following compound: COc1ccc(-c2[nH]c3ccc(-c4ccc5c(c4)NCCC5)cc3c2C(C)C)cc1OC
1.98

Dear colleague, I am looking for the recorded IC50 of the following compound: Cc1cc(-c2[nH]c3ccc(-c4nnc(C5CN6CCC5CC6)o4)cc3c2C(C)C)ccn1 (stereo not drawn) [Example 213]
0.0033

---

Assay Target: human TLR7 (Homo sapiens (Human), UniProt Q9NYK1)
Sequence (Q9NYK1 27-1049): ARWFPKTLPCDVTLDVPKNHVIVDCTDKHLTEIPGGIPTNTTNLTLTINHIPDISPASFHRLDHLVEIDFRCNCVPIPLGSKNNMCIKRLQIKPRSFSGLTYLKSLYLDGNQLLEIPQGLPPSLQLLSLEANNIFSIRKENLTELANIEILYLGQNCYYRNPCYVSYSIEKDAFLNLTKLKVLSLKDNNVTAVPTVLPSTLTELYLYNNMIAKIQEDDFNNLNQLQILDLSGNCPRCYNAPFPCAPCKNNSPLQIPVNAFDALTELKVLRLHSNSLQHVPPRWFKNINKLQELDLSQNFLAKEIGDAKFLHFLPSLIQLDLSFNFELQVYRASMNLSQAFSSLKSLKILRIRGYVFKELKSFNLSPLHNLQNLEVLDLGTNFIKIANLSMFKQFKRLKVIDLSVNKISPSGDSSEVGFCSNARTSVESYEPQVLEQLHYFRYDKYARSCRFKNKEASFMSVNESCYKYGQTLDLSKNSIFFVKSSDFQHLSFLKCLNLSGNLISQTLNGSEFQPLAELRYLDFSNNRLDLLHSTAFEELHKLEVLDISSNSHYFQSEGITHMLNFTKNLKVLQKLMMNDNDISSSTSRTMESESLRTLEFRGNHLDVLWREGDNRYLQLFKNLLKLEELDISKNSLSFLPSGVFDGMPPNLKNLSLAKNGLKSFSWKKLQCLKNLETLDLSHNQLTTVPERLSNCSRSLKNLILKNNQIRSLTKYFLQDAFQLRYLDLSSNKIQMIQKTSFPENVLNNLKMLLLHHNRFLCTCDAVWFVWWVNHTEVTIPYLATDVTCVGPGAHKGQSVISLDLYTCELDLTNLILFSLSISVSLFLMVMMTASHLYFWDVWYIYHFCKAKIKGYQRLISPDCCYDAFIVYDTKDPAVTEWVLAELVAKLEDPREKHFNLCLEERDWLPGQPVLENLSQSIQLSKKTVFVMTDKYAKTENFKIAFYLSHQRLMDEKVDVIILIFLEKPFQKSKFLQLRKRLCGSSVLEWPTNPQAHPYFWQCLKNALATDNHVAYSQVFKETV
Experiment Summary: TLR7 inhibition reporter assay (HEK-Blue, SEAP)
Assay Context: HEK-Blue cells overexpressing human TLR7, gardiquimod 7.5 μM stimulation
Measurement Name: IC50 (nM)
Write it as a number; the unit nM goes unstated.

Dear colleague, I am looking for the recorded IC50 of the following molecule: Cc1cc(-c2[nH]c3ccc(-c4cnc(N)cn4)cc3c2C(C)C)cc(C)n1 [Example 307]
11

Dear colleague, I am looking for the recorded IC50 of the following molecule: COc1ccc(-c2[nH]c3ccc(-c4cnc(N5CCN(CC(C)C)CC5)cc4C)cc3c2C(C)C)cc1OC [Example 418]
879

Dear colleague, I am looking for the recorded IC50 of the following molecule: COc1ccc(-c2[nH]c3ccc(-c4cccc(N5CCN(CC(C)C)CC5)c4)cc3c2C(C)C)cc1OC [Example 371]
894

Dear colleague, I am looking for the recorded IC50 of the following molecule: Cc1cc(-c2[nH]c3ccc(-c4ccc(N5CCN(C)CC5)nc4)cc3c2C(C)C)ccn1 [Example 253]
45

---

Assay Target: human TLR8 (Homo sapiens (Human))
Experiment Summary: TLR8 inhibition reporter assay (HEK-Blue, SEAP)
Assay Context: HEK-Blue cells overexpressing human TLR8, R848 15.9 μM stimulation
Measurement Name: log10 of IC50 (log10 of the value in nM)
For clarity, the numbers are log10 values of IC50 expressed in nM.

Dear colleague, I am looking for the recorded log10 of IC50 of the following compound: COc1ccc(-c2[nH]c3ccc(-c4nnc([C@H]5CCCNC5)o4)cc3c2CC(F)(F)F)cc1OC
1.00

Dear colleague, I am looking for the recorded log10 of IC50 of the following compound: CC(C)c1c(-c2ccnc3[nH]ncc23)[nH]c2ccc(-c3ccnn3C)cc12
1.08

Dear colleague, I am looking for the recorded log10 of IC50 of the following compound: Cc1cc(-c2[nH]c3ccc(-c4nnc(C5CN6CCC5CC6)o4)cc3c2C(C)C)ccn1 (stereo not drawn) [Example 231]
0.77

Dear colleague, I am looking for the recorded log10 of IC50 of the following compound: Cc1cc(-c2[nH]c3ccc(-c4ccnc(C5CCN(C(C)C)CC5)c4)cc3c2C(C)C)ccn1
0.95

Dear colleague, I am looking for the recorded log10 of IC50 of the following compound: CC(C)c1c(-c2ccnc3[nH]ncc23)[nH]c2ccc(-c3noc([C@@H]4CCCNC4)n3)cc12
0.61

Dear colleague, I am looking for the recorded log10 of IC50 of the following compound: CCc1c(-c2ccc(OC)c(OC)c2)[nH]c2ccc(-c3noc(C4CCN(C(C)C)CC4)n3)cc12
1.57

Dear colleague, I am looking for the recorded log10 of IC50 of the following compound: Cc1cc(-c2[nH]c3ccc(-c4nc(C(=O)NCC5CCNC5)c(C)o4)cc3c2C(C)C)ccn1 (stereo not drawn)
1.93

Dear colleague, I am looking for the recorded log10 of IC50 of the following compound: Cc1cc(-c2[nH]c3ccc(-c4nnc(C5CCCN(C(C)C)C5)[nH]4)cc3c2C(C)C)cc(C)n1 (stereo not drawn) [Example 340]
0.56

Dear colleague, I am looking for the recorded log10 of IC50 of the following compound: CCc1c(-c2ccc(OC)c(OC)c2)[nH]c2ccc(-c3noc(C4CC(=O)N(C)C4)n3)cc12 (stereo not drawn)
2.55

Dear colleague, I am looking for the recorded log10 of IC50 of the following compound: CC(=O)N1CCN(Cc2nnc(-c3ccc4[nH]c(-c5ccnc6[nH]ncc56)c(C(C)C)c4c3)o2)CC1
2.14

Dear colleague, I am looking for the recorded log10 of IC50 of the following compound: COc1ccc(-c2[nH]c3ccc(-c4nnc(C(=O)N5CC[C@H](N(C)C)C5)o4)cc3c2C(C)C)cc1OC
1.23

Dear colleague, I am looking for the recorded log10 of IC50 of the following compound: Cc1cc(-c2[nH]c3ccc(-c4nnc(Cc5cccnc5)o4)cc3c2C(C)C)ccn1
1.32

Dear colleague, I am looking for the recorded log10 of IC50 of the following compound: CCN(CC)C(=O)C1CCCN(C(=O)c2nnc(-c3ccc4[nH]c(-c5ccc(OC)c(OC)c5)c(C(C)C)c4c3)o2)C1 (stereo not drawn)
2.34

Dear colleague, I am looking for the recorded log10 of IC50 of the following compound: Cc1cc(-c2[nH]c3ccc(-c4nc(C(=O)NCC5CCNC5)co4)cc3c2C(C)C)cc(C)n1 (stereo not drawn)
1.41

Dear colleague, I am looking for the recorded log10 of IC50 of the following compound: COc1ccc(-c2[nH]c3ccc(-c4nnc(CN5CCOCC5)o4)cc3c2C(C)C)cc1OC
2.31

Values were extracted from patent US11420958B2.
